measured.target: Luciferin 4-monooxygenase (Photinus pyralis) (UniProt P08659)
protocol.text: Confirmatory firefly luciferase (FLuc) qHTS assay for identification of artifact compounds
measurement.conditions: purified FLuc enzyme, luminescence, 5 min; series mostly up to 38.9 µM
Records with an inconclusive call do not appear. Calls of active or inactive are those of the source. Calls come from the whole dose curve; as a rule, active = well fitted inhibition curve with a large enough effect; inconclusive = small, poorly fitted or top-dose-only effect; inactive = no such curve, though single readings can be large or run the other way.
Allowed answers: true (1) (active), false (0) (inactive)

Identify the outcome logged in this assay for the molecule shown: C[C@@H]1CC2(OC3C[C@@]4(C)C5=CC[C@H]6C(C)(C)C(O[C@@H]7OC[C@@H](O)[C@H](O)[C@H]7O)CC[C@@]67C[C@@]57CC[C@]4(C)C31)OC(O)C1(C)OC21 (stereo not given in full)
false (0)

Identify the outcome logged in this assay for the molecule shown: Cc1nnc(NC(=O)c2nc(S(=O)(=O)Cc3ccccc3)ncc2Cl)s1
false (0)

Identify the outcome logged in this assay for the molecule shown: COc1ccc(NC(=O)Cc2noc3ccc(C)cc23)cc1Cl
false (0)

Identify the outcome logged in this assay for the molecule shown: Cc1ccc(C2C=C(c3ccccc3)Nc3nc(NS(=O)(=O)c4ccccc4)nn32)cc1 (stereo not given)
false (0)

Identify the outcome logged in this assay for the molecule shown: O=C1c2ccccc2C(=O)N1c1cccc2cnccc12
false (0)

Identify the outcome logged in this assay for the molecule shown: Cc1ccc(OC(C)C(=O)NCC2(N3CCOCC3)CCCCC2)cc1C (stereo not given)
false (0)

Identify the outcome logged in this assay for the molecule shown: Cc1cc(NC(=O)c2cccnc2)cc(-c2nc3cc(Cl)ccc3o2)c1O
false (0)

Identify the outcome logged in this assay for the molecule shown: CCOc1ccccc1NC(=O)CSc1nc2c(oc3ccccc32)c(=O)n1-c1ccc(F)cc1
false (0)

Identify the outcome logged in this assay for the molecule shown: COc1ccc(NC(=O)C2CCCN(S(=O)(=O)c3cccc4nonc34)C2)cc1Cl (stereo not given)
false (0)

Identify the outcome logged in this assay for the molecule shown: CCN(Cc1cccc(S(=O)(=O)O)c1)c1ccc(C(=C2C=CC(=[N+](CC)Cc3cccc(S(=O)(=O)O)c3)C=C2)c2ccccc2S(=O)(=O)[O-])cc1
true (1)

Identify the outcome logged in this assay for the molecule shown: CCOC(=O)c1c(S(=O)(=O)NCC(=O)N2CCN(c3cc(C)ccc3C)CC2)c(C)n(C)c1C
false (0)

Identify the outcome logged in this assay for the molecule shown: COc1ccc(CCNC(=O)c2c(C)oc3ncn(C)c(=O)c23)c(OC)c1
false (0)

Identify the outcome logged in this assay for the molecule shown: Cc1ccc2nc(-c3cccs3)c(Nc3ccccc3)n2c1
false (0)

Identify the outcome logged in this assay for the molecule shown: CC(CCc1ccccc1)NC(=O)Cn1c(=O)nc(-c2ccccc2F)c2cc(Cl)ccc21 (stereo not given)
false (0)

Identify the outcome logged in this assay for the molecule shown: COCCn1c(C)cc(O)c(C(c2ccc(OC)cc2)N2CCN(c3ccccc3)CC2)c1=O (stereo not given)
false (0)

Identify the outcome logged in this assay for the molecule shown: Cc1cccc(NC(=O)COC(=O)CCCC2=NS(=O)(=O)c3ccccc3N2)c1
false (0)

Identify the outcome logged in this assay for the molecule shown: CC(=O)c1ccc(NS(=O)(=O)c2ccc(-c3cc(C)no3)s2)cc1
false (0)

Identify the outcome logged in this assay for the molecule shown: COc1ccc2cc3cc(C(=O)N4CCN(c5ccccc5F)CC4)oc3nc2c1
false (0)

Identify the outcome logged in this assay for the molecule shown: O=C(Nc1ccccc1-c1nc2ccccc2s1)c1cc(Cl)cc(Cl)c1
false (0)

Identify the outcome logged in this assay for the molecule shown: COc1ccc(NC(=O)Cn2c(=O)n(CCc3ccccc3)c(=O)c3c4c(sc32)CCCC4)cc1
false (0)

Identify the outcome logged in this assay for the molecule shown: CC1CCCCN1S(=O)(=O)c1cc2c3c(c1)CC(=O)N3CCC2 (stereo not given)
false (0)

Identify the outcome logged in this assay for the molecule shown: CCCCNS(=O)(=O)c1ccc2nc(-c3cccnc3)cc(C(=O)NCCC)c2c1
false (0)

Identify the outcome logged in this assay for the molecule shown: COc1ccccc1NC(=O)CSC1=Nc2ccccc2C2=NC(CC(=O)NCc3ccccc3)C(=O)N12 (stereo not given)
false (0)

Identify the outcome logged in this assay for the molecule shown: COc1cccc(-c2nnc(Nc3nc4c(OC)cccc4s3)o2)c1
false (0)

Identify the outcome logged in this assay for the molecule shown: Cc1ccccc1CNC(=O)C(C)N(c1ccccc1)S(C)(=O)=O (stereo not given)
false (0)
